Data provenance: paper PMC8698657

# assay: Trans-enterocyte transport of CA in Caco-2 cell monolayer
# Format: in vitro ADME, human
# conditionSummary: human, Caco-2, CA 50 μM, 1.0 h
measurementName: efflux ratio at 1 h, 50 μM

INSERT INTO results (compound, measurementname, valueobserved) VALUES
  ('CC(C)c1cc2c(c(O)c1O)[C@@]1(C(=O)O)CCCC(C)(C)[C@@H]1CC2 [CA, Carnosic acid]', 'efflux ratio at 1 h, 50 μM', 0.58);

* * *

# assay: Trans-enterocyte transport of CA in Caco-2 cell monolayer
# Type: in vitro ADME, human
# conditionSummary: human, Caco-2, CA 50 μM, 0.5 h
measurementName: Papp B→A at 0.5 h, 50 μM (×10⁻⁶ cm/s)

INSERT INTO assay_data (compound, measurementunits, valueobserved) VALUES
  ('CC(C)c1cc2c(c(O)c1O)[C@@]1(C(=O)O)CCCC(C)(C)[C@@H]1CC2 [CA, Carnosic acid]', '×10⁻⁶ cm/s', 0.12);
